Tested on: HT29 colon
protocol details: NCI tumour cell line growth inhibition, 48 h
This listing pairs molecules with measured TGI.

Worked cases, answers included:
molecule	assay system	TGI
Cc1cc(-c2nc3n(c2/C=N/N=C(N)N)CCS3)c(C)s1	HT29 colon	37.6 µM
O=C1c2ccn(CCCNC(CO)(CO)CO)c2C(=O)c2c1c(O)c1ccccc1c2O	HT29 colon	> 46.3 µM
O=C(NNc1ccccc1)c1ccc(Cl)c(Cl)c1	HT29 colon	> 100 µM
CC1(C)OC[C@H](COCOP2(=O)Oc3ccc4ccccc4c3-c3c(ccc4ccccc34)O2)O1	HT29 colon	31.3 µM

Find the recorded TGI belonging to "COc1c(-c2ccc3c(c2)OCO3)oc2cc(O)cc(O)c2c1=O" and report it. > 100 µM

Find the recorded TGI belonging to "C[C@H](c1ccccc1)n1c(N)c(-c2nc3ccccc3s2)c2ccc([N+](=O)[O-])cc2c1=O" and report it. > 52.7 µM

Find the recorded TGI belonging to "c1ccc2c(c1)SCCc1cn[nH]c1-2" and report it. > 100 µM

Find the recorded TGI belonging to "CCOC(=O)/C(C#N)=C\Sc1ccccc1" and report it. 84.4 µM

Find the recorded TGI belonging to "C[C@H]1COCCN1c1nc(-c2cnc(N)cc2C(F)F)nc(N2CCOCC2)n1" and report it. > 100 µM

Find the recorded TGI belonging to "COc1cc(NCCC(=O)O)c2ncccc2c1" and report it. > 100 µM

Find the recorded TGI belonging to CC(=O)[CH-]C(=O)c1ccccc1.CC(=O)[CH-]C(=O)c1ccccc1.CC[C@H](/C=C/C(C)[C@H]1CCC2[C@@H]3CC=C4C[C@@H]([O-])CC[C@]4(C)C3CC[C@@]21C)C(C)C.CC[C@H](/C=C/C(C)[C@H]1CCC2[C@@H]3CC=C4C[C@@H]([O-])CC[C@]4(C)C3CC[C@@]21C)C(C)C.Cl.[Ti+4] (some centres not stated) and report it. > 25 µM

Find the recorded TGI belonging to "COc1cccc2c(SCC(=O)Nc3ccccc3-c3ccccc3NC(=O)CSc3c4ccccc4nc4c(OC)cccc34)c3ccccc3nc12" and report it. > 100 µM

Find the recorded TGI belonging to "O=S(O)CCCSSSCCCS(=O)O" and report it. > 100 µM
